Here the recorded log10 of IC50 is given for each entry.
tested on: MV4-11; test: CellTiter-Blue cell viability, MV4-11; assay type: cell-based; details: Homo sapiens, MV4-11; AML cell line, 72 hours
QUANTITY: log10 of IC50 (log10 of the value in µM)

[
  {
    "MOLECULE": "O=S(=O)(c1c(F)c(F)c(F)c(F)c1F)N(Cc1ccncc1)C1CC1",
    "log10 of IC50": 0.26
  },
  {
    "MOLECULE": "O=S(=O)(c1c(F)c(F)c(F)c(F)c1F)N(Cc1ccc(C(F)(F)F)cc1)C1CC1",
    "log10 of IC50": -0.02
  },
  {
    "MOLECULE": "O=S(=O)(c1c(F)c(F)c(F)c(F)c1F)N(Cc1ccc(F)cn1)C1CC1",
    "log10 of IC50": 0.23
  },
  {
    "MOLECULE": "O=S(=O)(c1c(F)c(F)c(F)c(F)c1F)N(Cc1cccc(F)c1)C1CC1",
    "log10 of IC50": 0.23
  },
  {
    "MOLECULE": "O=S(=O)(c1c(F)c(F)c(F)c(F)c1F)N(Cc1ccc(F)cc1)C1CCC1",
    "log10 of IC50": -0.37
  },
  {
    "MOLECULE": "O=S(=O)(c1c(F)c(F)c(F)c(F)c1F)N(Cc1ccc(F)cc1)C1CC1",
    "log10 of IC50": -0.33
  },
  {
    "MOLECULE": "CS(=O)(=O)c1ccc(CN(C2CC2)S(=O)(=O)c2c(F)c(F)c(F)c(F)c2F)cc1",
    "log10 of IC50": 0.06
  },
  {
    "MOLECULE": "O=S(=O)(c1c(F)c(F)c(F)c(F)c1F)N(Cc1ccc(Cl)cc1)C1CC1",
    "log10 of IC50": 0.14
  },
  {
    "MOLECULE": "O=S(=O)(c1c(F)c(F)c(F)c(F)c1F)N(Cc1ccc(F)nc1)C1CC1",
    "log10 of IC50": 0.13
  },
  {
    "MOLECULE": "O=S(=O)(Nc1ccc(F)cc1)c1c(F)c(F)c(F)c(F)c1F [Comparative Example 5, reference compound]",
    "log10 of IC50": 0.64
  },
  {
    "MOLECULE": "O=C(O)c1ccc(CN(C2CC2)S(=O)(=O)c2c(F)c(F)c(F)c(F)c2F)cc1",
    "log10 of IC50": 0.08
  },
  {
    "MOLECULE": "O=S(=O)(NC1CC1)c1c(F)c(F)c(F)c(F)c1F [Comparative Example 6, reference compound]",
    "log10 of IC50": 0.81
  },
  {
    "MOLECULE": "O=C(OCc1ccccc1)c1ccc(CN(C2CC2)S(=O)(=O)c2c(F)c(F)c(F)c(F)c2F)cc1",
    "log10 of IC50": 0.00
  },
  {
    "MOLECULE": "O=S(=O)(c1c(F)c(F)c(F)c(F)c1F)N(Cc1ccccn1)C1CC1",
    "log10 of IC50": 0.18
  },
  {
    "MOLECULE": "O=S(=O)(c1c(F)c(F)c(F)c(F)c1F)N(Cc1ncc(F)cc1F)C1CC1",
    "log10 of IC50": 0.23
  },
  {
    "MOLECULE": "NC(=O)c1ccc(CN(C2CC2)S(=O)(=O)c2c(F)c(F)c(F)c(F)c2F)cc1",
    "log10 of IC50": 0.02
  }
]
